Assay: clinical
Conditions: human, in vivo
readout.label: log10(CL renal) (log10 of the value in mL/min/kg)

compound	log10(CL renal)
NC1CCN(c2c(F)cc3c(=O)c(C(=O)O)cn(C4CC4)c3c2Cl)C1 (centres undefined) [CLINAFLOXACIN]	0.51
CC1=C(C(=O)O)N2C(=O)[C@@H](NC(=O)[C@H](N)c3ccc(O)cc3)[C@H]2SC1 [CEFADROXIL]	0.37
CCC1(c2cccc(O)c2)CCCCN(C)C1 (centres undefined) [MEPTAZINOL]	0.15
CN(C)CCCN1c2ccccc2Sc2ccc(Cl)cc21 [CHLORPROMAZINE]	-0.80
C[C@H]1COc2c(N3CCN(C)CC3)c(F)cc3c(=O)c(C(=O)O)cn1c23.C[C@H]1COc2c(N3CCN(C)CC3)c(F)cc3c(=O)c(C(=O)O)cn1c23.O [LEVOFLOXACIN]	0.15
CCOC(=O)c1ncn2c1CN(C)C(=O)c1cc(F)ccc1-2 [FLUMAZENIL]	-1.52
CCCn1c(=O)[nH]c(=O)c2[nH]cnc21 [ENPROFYLLINE]	0.55
Nc1nc2c(c(=O)[nH]1)N(C=O)C(CNc1ccc(C(=O)N[C@@H](CCC(=O)O)C(=O)O)cc1)CN2 (some centres undefined) [LEUCOVORIN]	-0.10
O=C(O)[C@H]1/C(=C/CO)O[C@@H]2CC(=O)N21 [CLAVULANIC ACID]	0.12
CCCCCCCN(CC)CCCC(O)c1ccc(NS(C)(=O)=O)cc1 (centres undefined) [IBUTILIDE]	0.40
CC1(C)S[C@@H]2[C@H](NC(=O)[C@H](NC(=O)N3CCNC3=O)c3ccccc3)C(=O)N2[C@H]1C(=O)O [AZLOCILLIN]	0.22
CN(C)C(=N)N=C(N)N [METFORMIN]	0.87
CC(C)(C)NCC(O)COc1ccc(NC(=O)NC2CCCCC2)cc1 (centres undefined) [TALINOLOL]	0.41
CC(C)(C)NC[C@H](O)COc1nsnc1N1CCOCC1 [TIMOLOL]	0.15
CN(C)Cc1nnc2n1-c1ccc(Cl)cc1C(c1ccccc1)=NC2 [ADINAZOLAM]	0.41
C[C@H]1C[C@@H]2[C@H]([C@@H](O)C[C@@]3(C)[C@H]2CC[C@]3(O)C(=O)CO)[C@@]2(C)C=CC(=O)C=C12 [METHYLPREDNISOLONE]	-0.52
CS(=O)(=O)OCCCCOS(C)(=O)=O [BUSULFAN]	-0.70
CC(C)[C@H]1CC[C@H](C(=O)N[C@H](Cc2ccccc2)C(=O)O)CC1 [NATEGLINIDE]	-1.00
CCN(C)C(=O)Oc1cccc([C@H](C)N(C)C)c1 [RIVASTIGMINE]	-0.92
Cn1c(=O)c2[nH]cnc2n(C)c1=O.O [THEOPHYLLINE]	-1.05
CN(C)CCc1c[nH]c2ccc(C[C@H]3COC(=O)N3)cc12 [ZOLMITRIPTAN]	0.34
NC[C@H]1O[C@H](O[C@H]2[C@H](O)[C@@H](O[C@H]3O[C@H](CO)[C@@H](O)[C@H](N)[C@H]3O)[C@H](N)C[C@@H]2N)[C@H](N)C[C@@H]1O [TOBRAMYCIN]	0.08
CCN1CCN(C(=O)N[C@@H](C(=O)N[C@@H]2C(=O)N3[C@@H]2SC(C)(C)[C@@H]3C(=O)O)c2ccccc2)C(=O)C1=O [PIPERACILLIN]	0.51
CN[C@@H]1CCc2[nH]c3ccc(C(N)=O)cc3c2C1 [FROVATRIPTAN]	0.02
COc1ccc(C(=O)Nc2ccccc2CCC2CCCCN2C)cc1 (centres undefined) [ENCAINIDE]	-0.11
Cc1ccc(-c2nc3ccc(C)cn3c2CC(=O)N(C)C)cc1 [ZOLPIDEM]	-1.40
Nc1nc(N)c2nc(-c3ccccc3)c(N)nc2n1	0.44
CN/C(=N/CCSCc1nc[nH]c1C)NC#N [CIMETIDINE]	0.90
COc1cc2nc(N3CCN(C(=O)C4CCCO4)CC3)nc(N)c2cc1OC (centres undefined) [TERAZOSIN]	-0.89
C[C@]12C=CC(=O)C=C1CC[C@@H]1[C@@H]2[C@@H](O)C[C@@]2(C)[C@H]1CC[C@]2(O)C(=O)CO [PREDNISOLONE]	-0.22
C[C@H]1O[C@@H](O[C@H]2[C@@H](O)C[C@H](O[C@H]3[C@@H](O)C[C@H](O[C@H]4CC[C@@]5(C)[C@H](CC[C@@H]6[C@@H]5C[C@@H](O)[C@]5(C)[C@@H](C7=CC(=O)OC7)CC[C@]65O)C4)O[C@@H]3C)O[C@@H]2C)C[C@H](O)[C@@H]1O [DIGOXIN]	0.23
C[C@H](N[C@@H](CCc1ccccc1)C(=O)O)C(=O)N1CCC[C@H]1C(=O)O [ENALAPRILAT ANHYDROUS]	0.20
CN1CCN(C(=O)OC2c3nccnc3C(=O)N2c2ccc(Cl)cn2)CC1 (centres undefined) [ZOPICLONE]	-1.00
N#Cc1ccc(C(c2ccc(C#N)cc2)n2cncn2)cc1 [LETROZOLE]	-1.70
